ASSAY_TARGET: murine E^d MHC class II allele (Mus musculus, UniProt P01904+P01915)
Sequence (P01904 26-255): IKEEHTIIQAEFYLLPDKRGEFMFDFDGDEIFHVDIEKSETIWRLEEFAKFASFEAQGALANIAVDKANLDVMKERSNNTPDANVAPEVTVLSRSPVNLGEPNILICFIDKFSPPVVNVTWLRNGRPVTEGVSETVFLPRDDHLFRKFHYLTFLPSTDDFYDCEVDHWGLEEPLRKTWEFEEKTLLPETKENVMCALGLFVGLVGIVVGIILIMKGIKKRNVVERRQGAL
Sequence (P01915 27-264 limits assumed): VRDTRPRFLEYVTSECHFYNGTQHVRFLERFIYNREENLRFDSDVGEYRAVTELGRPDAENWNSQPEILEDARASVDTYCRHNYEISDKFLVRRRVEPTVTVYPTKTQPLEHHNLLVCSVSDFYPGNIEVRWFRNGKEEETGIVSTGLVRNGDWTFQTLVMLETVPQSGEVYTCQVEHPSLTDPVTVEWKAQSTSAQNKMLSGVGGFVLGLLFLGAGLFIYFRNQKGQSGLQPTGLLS
ASSAY_NAME: processed antigen assay, E^d allele (APC pulsed with native HEL)
Assay type: cell-based
Parameters: The A20 and CH27 B cell lymphoma lines express H-2^d and H-2^k alleles, respectively; endogenous in cells; host or cells: A20 B cell lymphoma (mitomycin C-treated or paraformaldehyde-fixed)
MEASUREMENT_CONDITIONS: Table 34; AE peptide 64 μM; native HEL 10 μM prepulse; supernatant 1:8
Positions of bridges follow the written chain, without caps; N, C: chain ends. No end group written: not given here.
MEASURED_PARAMETER: Activity in processed antigen assay, E^d (baseline = 1.0)
Lab note: jot the number down without any unit.

Below, each entry is followed by its recorded Activity in processed antigen assay, E^d (baseline = 1.0) result.
- SUBSTANCE: "Ac-LRMKLPK-NH2 [AE114]"
  QUANTITATIVE_READOUT: 0.22
- SUBSTANCE: "cyclic LRMKLPK (bridge (positions not given here); also: cyclic, ring type not given here) [AE381, “head-to-tail” cyclization from the amino-terminus to the carboxyl-terminus of AE114]"
  QUANTITATIVE_READOUT: 0.18
- SUBSTANCE: "Ac-LRMK Y PK-NH2 (Ac-LRMKYPK-NH2; not fully specified; printed as Ac-LRMK Y PK-NH2) [AE235]"
  QUANTITATIVE_READOUT: 0.19

Please report the recorded Activity in processed antigen assay, E^d (baseline = 1.0) for Ac-LRMKLPK (lactam 4-C) [AE382] .
0.61

----------
ASSAY_TARGET: murine E^d MHC class II allele (Mus musculus, UniProt P01904+P01915)
Sequence (P01904 26-255): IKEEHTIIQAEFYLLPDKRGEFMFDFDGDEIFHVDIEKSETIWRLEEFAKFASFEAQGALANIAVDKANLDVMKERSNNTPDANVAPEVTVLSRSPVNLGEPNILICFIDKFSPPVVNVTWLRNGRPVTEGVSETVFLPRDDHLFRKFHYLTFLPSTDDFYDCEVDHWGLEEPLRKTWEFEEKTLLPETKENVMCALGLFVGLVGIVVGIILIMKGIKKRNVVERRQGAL
Sequence (P01915 27-264 limits assumed): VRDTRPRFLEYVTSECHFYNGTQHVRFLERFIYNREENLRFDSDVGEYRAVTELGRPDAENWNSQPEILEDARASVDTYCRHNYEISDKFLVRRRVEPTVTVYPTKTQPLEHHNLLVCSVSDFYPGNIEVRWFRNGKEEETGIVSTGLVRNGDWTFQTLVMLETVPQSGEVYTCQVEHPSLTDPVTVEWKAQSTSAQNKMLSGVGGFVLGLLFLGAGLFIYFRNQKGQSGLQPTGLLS
ASSAY_NAME: processed antigen assay, E^d allele (APC pulsed with native HEL)
Type: cell-based
Set-up: The A20 and CH27 B cell lymphoma lines express H-2^d and H-2^k alleles, respectively; endogenous in cells; host or cells: A20 B cell lymphoma (mitomycin C-treated or paraformaldehyde-fixed)
MEASUREMENT_CONDITIONS: Table 29; native HEL prepulse 20 μM; AE peptide 64 μM; supernatant dilution 1:8 (second value)
Non-standard residues stand in square brackets, D forms with d. Cit = NC(=O)NCCC[C@H](N)C(=O)O
Quick list: T cell response relative to baseline (None = 1.0), 20 μM HEL E^d, second value per entry.
Lab note: jot the number down without any unit.

Below, each entry is followed by its recorded T cell response relative to baseline (None = 1.0), 20 μM HEL E^d, second value result.
- SUBSTANCE: "Ac-LRMK Cit PK-NH2 (Ac-LRMK[Cit]PK-NH2; SMILES CSCC[C@H](NC(=O)[C@H](CCCNC(=N)N)NC(=O)[C@H](CC(C)C)NC(C)=O)C(=O)N[C@@H](CCCCN)C(=O)N[C@@H](CCCNC(N)=O)C(=O)N1CCC[C@H]1C(=O)N[C@@H](CCCCN)C(N)=O) [AE226]"
  QUANTITATIVE_READOUT: 0.87
- SUBSTANCE: "Ac-LRMK M PK-NH2 (Ac-LRMKMPK-NH2) [AE236]"
  QUANTITATIVE_READOUT: 0.72
- SUBSTANCE: "Ac-LRMK H PK-NH2 (Ac-LRMKHPK-NH2) [AE228]"
  QUANTITATIVE_READOUT: 0.61

Shift focus to the following entry.
Please report the recorded T cell response relative to baseline (None = 1.0), 20 μM HEL E^d, second value for Ac-LRMK D PK-NH2 (Ac-LRMKDPK-NH2) [AE230] .
0.98

Hey, just so you know, these numbers are from patent US6835382B2.
